pIC50: −log10 of the molar value.
Target or system cAMP and cAMP-inhibited cGMP 3',5'-cyclic phosphodiesterase 10A (Homo sapiens): recorded pIC50 listed per item.
RECORDED ENDPOINT: pIC50

COc1cc2nncc(-c3cnc(N4CCC(C(C)(C)O)CC4)c(C4CC4)c3)c2cc1OC = 8.89

a = COc1cc2nncc(-c3cnc(NC(C)C)c(C(N)=O)c3)c2cc1OC
b = COc1cc2nncc(-c3cnc(N4CCC(O)(C5CC5)CC4)c(C)c3)c2cc1OC
# argmax over pIC50 for candidates a and b Lab note: record the label of whichever item you select. b
(b: 8.74, a: 7.79)
